# Test system: MALME3 melanoma viability, CellTiter-Glo luminescence, 24 h
# ASSAY TEXT: growth inhibition of MALME3 cells – cell-based, CellTiter-Glo, cherry-picked, orthogonal assay for MITF inhibitor project, dose response (AID 493191)
QUANTITY: AC50

These solved cases illustrate the format of a correct answer.
>>> obs_value("O=[N+]([O-])c1ccc(/C=N/N=C/c2ccc([N+](=O)[O-])o2)o1")
"12.9 µM"
>>> obs_value("Cc1ccc(S(=O)(=O)N2CCCCC2)cc1NC(=O)Cn1ncc(Cl)c(Cl)c1=O")
"6.08 µM"
>>> obs_value("O=[N+]([O-])c1cccc2c(N3CCCC3)ccnc12")
"4.82 µM"
>>> obs_value("CC1CCC(C(C)C)C(OC(=O)Cn2c(-c3ccc(F)cc3)[n+](C)c3ccccc32)C1 (configuration not stated)")
"12.5 µM"
>>> obs_value("O=C1C(Nc2ccccc2)=C(N2CCCCC2)C(=O)c2ccccc21")
"18.2 µM"

Item under review: Cc1ccccc1C(=O)N1CCN(c2ccc(NC(=O)c3ccc([N+](=O)[O-])o3)cc2)CC1 . Reported AC50?
9.64 µM

Item: COc1cc(/C=N/N=C(N)N)ccc1OCc1ccc(Cl)cc1
19.9 µM

====

Listing of recorded AC50 by entry.
# Tested on: MALME3 melanoma viability, CellTiter-Glo luminescence, 24 h
# ASSAY TEXT: growth inhibition of MALME3 cells – cell-based, CellTiter-Glo, cherry-picked, orthogonal assay for MITF inhibitor project, dose response (AID 493191)

These solved cases illustrate the format of a correct answer.
>>> obs_value("CCC(=O)N1CCN(c2ccc(NC(=O)c3ccc([N+](=O)[O-])o3)cc2Cl)CC1")
"9.97 µM"
>>> obs_value("Cc1ccc(-n2cc(CNCCCn3ccnc3C)c(-c3ccc(F)cc3)n2)cc1")
"15.8 µM"
>>> obs_value("O=C(COc1ccccc1)N/N=C/c1ccc([N+](=O)[O-])o1")
"18.6 µM"

Item under review: Cc1[nH]nc2nc(SCC(=O)NCCC3=CCCCC3)n(-c3ccc(Br)cc3)c(=N)c12 . Reported AC50?
20.5 µM

Item: Cc1ccc(NC(=O)CCC(=O)N/N=C/c2ccc([N+](=O)[O-])o2)cc1C
21.9 µM

====

# System: MALME3 melanoma viability, CellTiter-Glo luminescence, 24 h
# ASSAY TEXT: growth inhibition of MALME3 cells – cell-based, CellTiter-Glo, cherry-picked, orthogonal assay for MITF inhibitor project, dose response (AID 493191)
QUANTITY: AC50

Item under review: COc1ccc(-n2c(C)cc(C(=O)CCl)c2C)cc1 . Reported AC50?
19.3 µM

Item: CN(C)CCNC(=O)/C(=C/c1ccc(-c2ccc(Cl)cc2Cl)o1)NC(=O)c1ccccc1
18 µM

Item: CN(C)CCCNC(=O)/C(=C\c1ccc(-c2ccc(Br)cc2)o1)NC(=O)c1ccccc1
16.3 µM

Item: CCNC1=C(Cl)C(=O)c2ccccc2C1=O
15.3 µM

====

# Test system: MALME3 melanoma viability, CellTiter-Glo luminescence, 24 h
# ASSAY TEXT: growth inhibition of MALME3 cells – cell-based, CellTiter-Glo, cherry-picked, orthogonal assay for MITF inhibitor project, dose response (AID 493191)
Listing of recorded AC50 by entry.

>>> obs_value("CCN1CCN(C2=C(NS(=O)(=O)c3ccc(Br)cc3)C(=O)c3ccccc3C2=O)CC1")
"20.1 µM"
>>> obs_value("N=c1n(CC(=O)c2ccc(Br)s2)c2ccccc2n1Cc1ccccc1")
"24.7 µM"
>>> obs_value("CCCCCCCNC(=O)C1(CC2CC(c3ccc(Cl)cc3)=NO2)CCNCC1 (stereo not given)")
"15.2 µM"
>>> obs_value("O=C(CNC(=O)c1cccc(F)c1)N/N=C/c1ccc([N+](=O)[O-])s1")
"25.1 µM"

Now for the molecule whose AC50 we want.
Item under review: Cc1cc(-n2c(SCC(=O)NCCC3=CCCCC3)nc3n[nH]c(C)c3c2=N)ccc1Cl . Reported AC50?
28.6 µM

====

Listing of recorded AC50 by entry.
# Tested on: MALME3 melanoma viability, CellTiter-Glo luminescence, 24 h
# ASSAY TEXT: growth inhibition of MALME3 cells – cell-based, CellTiter-Glo, cherry-picked, orthogonal assay for MITF inhibitor project, dose response (AID 493191)

These solved cases illustrate the format of a correct answer.
>>> obs_value("COc1ccc(S(=O)(=O)N2CCCCC2)cc1NC(=O)c1ccc([N+](=O)[O-])o1")
"14.3 µM"
>>> obs_value("Cc1ccc([N+](=O)[O-])cc1N1C(=O)CS/C1=N\\NC(=O)c1cccnc1")
"24.2 µM"
>>> obs_value("Cc1ccc(NC(=O)c2ccc([N+](=O)[O-])o2)cc1S(=O)(=O)N1CCOCC1")
"26.1 µM"

Item under review: Cc1ccc(Oc2c(C(N)=O)cc([N+](=O)[O-])cc2[N+](=O)[O-])cc1 . Reported AC50?
25.9 µM

Item: CCCCC[n+]1ccn(C2=C([O-])c3ccccc3C(=O)/C2=N\S(=O)(=O)c2ccccc2)c1
14.2 µM

Item: CN(C)c1nc(C=C(C#N)C#N)c(Cl)n1-c1ccc(F)cc1
21.2 µM

Item: CC1CCC(C(C)C)C(OC(=O)C[n+]2cc(-c3ccc(Cl)cc3)n3c2CCCCC3)C1 (configuration not stated)
18 µM

Item: Cc1ccc(NCC(=O)N/N=C\c2ccc([N+](=O)[O-])o2)cc1
25.3 µM

Item: CC[n+]1c(-c2ccccc2)c2cc(N)ccc2c2ccc(N)cc21
23.3 µM

====

# Test system: MALME3 melanoma viability, CellTiter-Glo luminescence, 24 h
# ASSAY TEXT: growth inhibition of MALME3 cells – cell-based, CellTiter-Glo, cherry-picked, orthogonal assay for MITF inhibitor project, dose response (AID 493191)
Listing of recorded AC50 by entry.

These solved cases illustrate the format of a correct answer.
>>> obs_value("CN1CCN(c2ccc(NC(=O)c3ccc([N+](=O)[O-])o3)cc2Cl)CC1")
"21.3 µM"
>>> obs_value("CC(C)(C)C(=O)Cn1ncc(Br)c(Br)c1=O")
"17.7 µM"
>>> obs_value("CS(=O)(=O)c1ncc(Cl)c(C(=O)Nc2ccc(N3CCOCC3)cc2)n1")
"10.7 µM"
>>> obs_value("COc1ccccc1-c1cc(C(F)(F)F)nc(S(C)(=O)=O)n1")
"19.6 µM"

Item under review: CN1CCC(N(C)C(=O)/C=C/c2cn(-c3ccccc3)nc2-c2cccs2)CC1 . Reported AC50?
29.7 µM

Item: Cc1ccccc1-c1nc(-c2ccccn2)no1
22.2 µM

====

# Tested on: MALME3 melanoma viability, CellTiter-Glo luminescence, 24 h
# ASSAY TEXT: growth inhibition of MALME3 cells – cell-based, CellTiter-Glo, cherry-picked, orthogonal assay for MITF inhibitor project, dose response (AID 493191)
QUANTITY: AC50

These solved cases illustrate the format of a correct answer.
>>> obs_value("O=C(Cn1ncc(Cl)c(Cl)c1=O)NC1CCCCC1")
"24.8 µM"
>>> obs_value("CCN1CCN(c2ccc(S(=O)(=O)N3CCCCC3)cc2NC(=O)/C=C/c2cccc(OC)c2OC)CC1")
"29.7 µM"
>>> obs_value("COCCN(CC(=O)NC1CCCCC1)C(=O)/C=C/C(=O)c1ccc(OC)cc1O")
"6.68 µM"
>>> obs_value("CC(C)(C)C(=O)/C(=C/c1ccncc1)n1cncn1")
"21.9 µM"
>>> obs_value("O=C(N/N=C/c1ccc([N+](=O)[O-])s1)c1cccc(Br)c1")
"29.9 µM"
>>> obs_value("CC(NC(=O)C12CC3CC(CC(C3)C1)C2)C(=O)NN=Cc1ccc([N+](=O)[O-])o1 (stereo not given)")
"26.9 µM"

Item under review: O=C(CCl)Nc1cccc(S(=O)(=O)N2CCCCCC2)c1 . Reported AC50?
17.9 µM

Item: Cn1cc([N+](=O)[O-])c(C(=O)Nc2nc(-c3ccc(Cl)cc3)cs2)n1
26.5 µM

Item: COc1cccc(CNCCc2c[nH]c3ccccc23)c1OCc1ccccc1
17.9 µM

Item: COc1ccc2nc(N3CCN(C(=O)c4ccc([N+](=O)[O-])o4)CC3)sc2c1
21.7 µM

====

# Test system: MALME3 melanoma viability, CellTiter-Glo luminescence, 24 h
# ASSAY TEXT: growth inhibition of MALME3 cells – cell-based, CellTiter-Glo, cherry-picked, orthogonal assay for MITF inhibitor project, dose response (AID 493191)
Listing of recorded AC50 by entry.

>>> obs_value("CC1CCC/C=C/C(=O)c2c(O)cc(O)cc2CC(=O)O1 (stereo unspecified)")
"21.2 µM"
>>> obs_value("O=C(CNC(=O)c1ccccc1)N/N=C/c1ccc([N+](=O)[O-])s1")
"26.2 µM"
>>> obs_value("CCOC(=O)N1C(=O)[C@@](CC)(c2ccccc2)N1C(=O)OCC")
"26.2 µM"
>>> obs_value("CC(C)Oc1ccc(C(CCNCc2ccc(O)cc2)c2ccccc2)cc1 (stereo unspecified)")
"32.9 µM"
>>> obs_value("FC(F)(F)c1cc(CCN2CCNC[C@@H]2Cc2ccccc2)cc(C(F)(F)F)c1")
"19.3 µM"

Query for MALME3 melanoma viability, CellTiter-Glo luminescence, 24 h: what AC50 does the record show for O=C(NCC1CCCCC1)C1(CC2CC(c3cccc(Br)c3)=NO2)CCNCC1 (stereo unspecified) ?
24.4 µM
